System: CHO-K1 cells
Test: In vitro mouse micronucleus assay (a test for cytotoxicity)
Type: cell-based
Conditions: 24 hr without S9 and 4 hr with S9, 62 μM-1000 μM

[
  {
    "molecule": "O=C1NC(=S)NC(=O)C1C(=O)Nc1ccccc1 [Merbarone, reference compound]",
    "Mouse Micronucleus": "Positive"
  },
  {
    "molecule": "O=C(Nc1ccc(O)cc1)c1c(O)[nH]c(=O)[nH]c1=O [4′-hydroxy-2-oxo-desthiomerbarone]",
    "Mouse Micronucleus": "Negative"
  },
  {
    "molecule": "O=C(Nc1ccccc1)c1c(O)[nH]c(=O)[nH]c1=O",
    "Mouse Micronucleus": "Positive"
  },
  {
    "molecule": "O=C(Nc1ccc(O)cc1)c1c(O)[nH]c(=S)[nH]c1=O [4′-hydroxymerbarone]",
    "Mouse Micronucleus": "Negative"
  }
]
